System: HT29 colon
Experiment: NCI tumour cell line growth inhibition, 48 h
Property Label: TGI

// known answers, use as guide
compound="CCOC1OC(CO)C(O)CC1n1ccc(=O)[nH]c1=O (centres undefined)" assayed_system="HT29 colon" property_label=TGI val="> 100 µM"
compound="Cc1cccc(C2ON=C(c3ccccc3)N2C23CC4CC(CC(C4)C2)C3)c1 (centres undefined)" assayed_system="HT29 colon" property_label=TGI val="> 10 µM"
compound=O=c1[nH]nc(Cc2ccccc2)n1/N=C/c1cccs1 assayed_system="HT29 colon" property_label=TGI val="> 100 µM"
compound=Nc1nc(Nc2ccc(Cl)c(Cl)c2)nc2nc[nH]c12 assayed_system="HT29 colon" property_label=TGI val="30.6 µM"
compound="CC(CSC(=N)N)C(N)=O (centres undefined)" assayed_system="HT29 colon" property_label=TGI val="> 100 µM"
compound="CCOC(=O)C(NC(=O)OCc1ccccc1)C(=O)O (centres undefined)" assayed_system="HT29 colon" property_label=TGI val="> 100 µM"
compound="O=NN1C(c2ccccc2)CNC(=O)CC1c1ccccc1 (centres undefined)" assayed_system="HT29 colon" property_label=TGI val="> 100 µM"
compound=N#C/C(=C\c1ccncc1)c1csc2ccccc12 assayed_system="HT29 colon" property_label=TGI val="48.2 µM"

## Input Give the measured TGI of O=C1NC(=NCc2ccccc2Cl)S/C1=C\c1ccc2ncccc2c1 .
## Output > 25 µM

## Input If you can, please state the reported TGI value of COc1cc2oc(-c3cccc(C(=O)Nc4ccc(Cl)cc4)c3)cc(=O)c2c(OC)c1OC .
## Output 6.65 µM

## Input Which TGI is listed for CC(C)C1CNC(=O)C2(C=NC(C(C)C)CNC(=O)C3(C=N1)CCCO3)CCCO2 (centres undefined) ?
## Output > 10 µM

## Input Using the record for COc1ccc(/C=c2\c(=O)[nH]c3nc4ccccc4c(=O)n23)cc1 , report its TGI.
## Output > 100 µM

## Input Look up TGI for this compound: [N-]=[N+]=Nc1ccccc1-c1ccccc1[N+](=O)[O-]
## Output > 100 µM

## Input Which measured TGI value corresponds to COC(=O)C(=O)C(C(=O)OC)C(=O)C(=O)Nc1c(C)cccc1C (centres undefined) ?
## Output > 100 µM
